Origin of measurements: the supplement of paper PMC6555819

# System: PPARg DBDmut IVT, anti-PPARg (DBD mutation: PPARg1 K132A/R137A, NR concentration 270 nM)
# protocolNotes: PBM binding z-score (relative to random genomic background probes); higher = stronger binding; sequences stand for … in GC…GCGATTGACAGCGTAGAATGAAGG
Threshold check on PBM binding z-score: at or above 0.5 gives YES, strictly below gives NO.

> print(dat)
                         sequenceentry                                  testedon  classlabel
 1  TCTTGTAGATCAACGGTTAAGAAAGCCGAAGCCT  PPARg DBDmut IVT, anti-PPARg (DBD mutation: PPARg1 K132A/R137A, NR concentration 270 nM)         YES
 2  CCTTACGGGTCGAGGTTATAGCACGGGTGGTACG  PPARg DBDmut IVT, anti-PPARg (DBD mutation: PPARg1 K132A/R137A, NR concentration 270 nM)          NO
 3  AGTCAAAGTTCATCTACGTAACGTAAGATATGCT  PPARg DBDmut IVT, anti-PPARg (DBD mutation: PPARg1 K132A/R137A, NR concentration 270 nM)         YES
 4  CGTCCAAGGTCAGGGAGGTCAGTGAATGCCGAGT  PPARg DBDmut IVT, anti-PPARg (DBD mutation: PPARg1 K132A/R137A, NR concentration 270 nM)          NO
 5  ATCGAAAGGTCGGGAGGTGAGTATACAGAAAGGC  PPARg DBDmut IVT, anti-PPARg (DBD mutation: PPARg1 K132A/R137A, NR concentration 270 nM)         YES
 6  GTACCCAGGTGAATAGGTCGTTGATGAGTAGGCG  PPARg DBDmut IVT, anti-PPARg (DBD mutation: PPARg1 K132A/R137A, NR concentration 270 nM)          NO
 7  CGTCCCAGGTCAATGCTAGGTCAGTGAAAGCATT  PPARg DBDmut IVT, anti-PPARg (DBD mutation: PPARg1 K132A/R137A, NR concentration 270 nM)          NO
 8  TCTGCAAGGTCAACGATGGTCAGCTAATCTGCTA  PPARg DBDmut IVT, anti-PPARg (DBD mutation: PPARg1 K132A/R137A, NR concentration 270 nM)          NO
 9  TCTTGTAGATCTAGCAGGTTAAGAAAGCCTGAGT  PPARg DBDmut IVT, anti-PPARg (DBD mutation: PPARg1 K132A/R137A, NR concentration 270 nM)         YES
10  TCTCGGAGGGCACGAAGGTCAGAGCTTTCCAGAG  PPARg DBDmut IVT, anti-PPARg (DBD mutation: PPARg1 K132A/R137A, NR concentration 270 nM)          NO
11  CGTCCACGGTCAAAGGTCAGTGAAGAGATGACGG  PPARg DBDmut IVT, anti-PPARg (DBD mutation: PPARg1 K132A/R137A, NR concentration 270 nM)          NO
12  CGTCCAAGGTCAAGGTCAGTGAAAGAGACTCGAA  PPARg DBDmut IVT, anti-PPARg (DBD mutation: PPARg1 K132A/R137A, NR concentration 270 nM)          NO
